- assayed.target: human progesterone receptor B (Homo sapiens)
- Construct: expressed in transfected cells; host or cells: SK-N-MC human neuroblastoma cells, stably transfected with pRChPR-B-neo and pMMTV-LUC
- Sequence (P06401 whole entry): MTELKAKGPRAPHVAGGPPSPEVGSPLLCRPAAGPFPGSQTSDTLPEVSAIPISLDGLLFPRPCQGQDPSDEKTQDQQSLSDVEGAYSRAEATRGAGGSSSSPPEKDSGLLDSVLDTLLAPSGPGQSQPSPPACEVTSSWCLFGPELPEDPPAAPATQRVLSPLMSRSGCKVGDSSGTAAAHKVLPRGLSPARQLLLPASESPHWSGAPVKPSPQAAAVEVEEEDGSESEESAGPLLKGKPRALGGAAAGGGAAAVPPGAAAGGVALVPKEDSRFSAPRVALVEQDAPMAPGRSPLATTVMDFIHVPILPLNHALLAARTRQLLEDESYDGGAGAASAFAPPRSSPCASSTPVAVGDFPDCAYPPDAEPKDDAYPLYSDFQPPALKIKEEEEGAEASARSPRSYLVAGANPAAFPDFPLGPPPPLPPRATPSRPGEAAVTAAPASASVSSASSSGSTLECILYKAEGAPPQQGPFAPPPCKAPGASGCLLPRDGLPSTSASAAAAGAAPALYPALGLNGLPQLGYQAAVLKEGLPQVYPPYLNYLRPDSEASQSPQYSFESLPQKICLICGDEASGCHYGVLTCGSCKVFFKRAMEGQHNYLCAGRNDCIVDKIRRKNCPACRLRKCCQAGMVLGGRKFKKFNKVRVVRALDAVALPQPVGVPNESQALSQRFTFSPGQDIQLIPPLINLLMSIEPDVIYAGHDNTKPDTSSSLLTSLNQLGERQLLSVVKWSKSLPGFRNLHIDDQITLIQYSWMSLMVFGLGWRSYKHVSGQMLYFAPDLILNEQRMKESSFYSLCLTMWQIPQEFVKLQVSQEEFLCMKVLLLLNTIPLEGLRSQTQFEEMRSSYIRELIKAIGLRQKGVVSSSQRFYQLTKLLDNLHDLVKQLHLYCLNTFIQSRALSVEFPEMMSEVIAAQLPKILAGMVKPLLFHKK
- method.summary: Progesterone receptor-antagonistic action in stably transfected SK-N-MC cells, PR-B, MMTV-LUC reporter
- Type: cell-based
- conditions: read-out: IC50 PR-B
IC50 values, listed per item

- molecule: "C#Cc1ccc([C@H]2C[C@@]3(C)C(CC[C@@]3(O)C(F)(F)C(F)(F)F)C3CCC4=CC(=O)CCC4=C32)cc1 (some centres unmarked)"
  unit.info: "pM"
  IC50: 14
- molecule: "C[C@]12C[C@H](c3ccc(C#Cc4cccc(S(C)(=O)=O)c4)cc3)C3=C4CCC(=O)C=C4CC[C@H]3[C@@H]1CC[C@@]2(O)C(F)(F)C(F)(F)F"
  unit.info: "pM"
  IC50: 100
- molecule: "C[C@]12C[C@H](c3ccc(C#C/C=C\\C#N)cc3)C3=C4CCC(=O)C=C4CCC3C1CC[C@@]2(O)C(F)(F)C(F)(F)F (some centres unmarked)"
  unit.info: "pM"
  IC50: 760
- molecule: "CCO/N=C\\C#Cc1ccc([C@H]2C[C@@]3(C)C(CC[C@@]3(O)C(F)(F)C(F)(F)F)C3CCC4=CC(=O)CCC4=C32)cc1 (some centres unmarked) [Example 25B]"
  unit.info: "pM"
  IC50: 90
- molecule: "CC(C)NC(=O)NCC#Cc1ccc([C@H]2C[C@@]3(C)[C@@H](CC[C@@]3(O)C(F)(F)C(F)(F)F)[C@@H]3CCC4=CC(=O)CCC4=C32)cc1"
  unit.info: "pM"
  IC50: 100
- molecule: "CC(C)(C)c1ccc(NC(=O)OCC#Cc2ccc([C@H]3C[C@@]4(C)C(CC[C@@]4(O)C(F)(F)C(F)(F)F)C4CCC5=CC(=O)CCC5=C43)cc2)cc1 (some centres unmarked)"
  unit.info: "pM"
  IC50: 1200
- molecule: "CC(C)NC(=O)OCC#Cc1ccc([C@H]2C[C@@]3(C)C(CC[C@@]3(O)C(F)(F)C(F)(F)F)C3CCC4=CC(=O)CCC4=C32)cc1 (some centres unmarked)"
  unit.info: "pM"
  IC50: 70
- molecule: "C[C@]12C[C@H](c3ccc(C#Cc4ccc(C(=O)O)cc4)cc3)C3=C4CCC(=O)C=C4CC[C@H]3[C@@H]1CC[C@@]2(O)C(F)(F)C(F)(F)F"
  unit.info: "pM"
  IC50: 50
- molecule: "C[C@]12C[C@H](c3ccc(C#CCNC(=O)Nc4ccc(Cl)cc4)cc3)C3=C4CCC(=O)C=C4CC[C@H]3[C@@H]1CC[C@@]2(O)C(F)(F)C(F)(F)F"
  unit.info: "pM"
  IC50: 400
- molecule: "C[C@]12C[C@H](c3ccc(C#CCOC(=O)Nc4ccccc4)cc3)C3=C4CCC(=O)C=C4CCC3C1CC[C@@]2(O)C(F)(F)C(F)(F)F (some centres unmarked)"
  unit.info: "pM"
  IC50: 10
- molecule: "C[C@]12C[C@H](c3ccc(C#C/C=N\\OCc4ccccc4)cc3)C3=C4CCC(=O)C=C4CCC3C1CC[C@@]2(O)C(F)(F)C(F)(F)F (some centres unmarked) [Example 24B]"
  unit.info: "pM"
  IC50: 100
- molecule: "C[C@]12C[C@H](c3ccc(C#Cc4ccc(S(C)(=O)=O)cc4)cc3)C3=C4CCC(=O)C=C4CC[C@H]3[C@@H]1CC[C@@]2(O)C(F)(F)C(F)(F)F"
  unit.info: "pM"
  IC50: 80
- molecule: "CC(C)(C)OC(=O)COCC#Cc1ccc([C@H]2C[C@@]3(C)[C@@H](CC[C@@]3(O)C(F)(F)C(F)(F)F)[C@@H]3CCC4=CC(=O)CCC4=C32)cc1"
  unit.info: "pM"
  IC50: 410
- molecule: "COC(=O)c1cccc(C=CC#Cc2ccc([C@H]3C[C@@]4(C)C(CC[C@@]4(O)C(F)(F)C(F)(F)F)C4CCC5=CC(=O)CCC5=C43)cc2)c1 (mixture of isomers)"
  unit.info: "pM"
  IC50: 2000
- molecule: "C[C@]12C[C@H](c3ccc(C#CCOC(=O)NCc4ccccc4)cc3)C3=C4CCC(=O)C=C4CCC3C1CC[C@@]2(O)C(F)(F)C(F)(F)F (some centres unmarked)"
  unit.info: "pM"
  IC50: 30
- molecule: "C[C@]12C[C@H](c3ccc(C#CC(=O)O)cc3)C3=C4CCC(=O)C=C4CCC3C1CC[C@@]2(O)C(F)(F)C(F)(F)F (some centres unmarked)"
  unit.info: "pM"
  IC50: 16000
- molecule: "C[C@]12C[C@H](c3ccc(C#CCNC(=O)Nc4ccc(N5CCCCC5)cc4)cc3)C3=C4CCC(=O)C=C4CC[C@H]3[C@@H]1CC[C@@]2(O)C(F)(F)C(F)(F)F"
  unit.info: "pM"
  IC50: 900
- molecule: "C[C@]12C[C@H](c3ccc(C#CCNC(=O)Nc4ccc(F)cc4)cc3)C3=C4CCC(=O)C=C4CC[C@H]3[C@@H]1CC[C@@]2(O)C(F)(F)C(F)(F)F"
  unit.info: "pM"
  IC50: 200
- molecule: "C[C@]12C[C@H](c3ccc(C#CCOCc4nnn[nH]4)cc3)C3=C4CCC(=O)C=C4CC[C@H]3[C@@H]1CC[C@@]2(O)C(F)(F)C(F)(F)F"
  unit.info: "pM"
  IC50: 5000
- molecule: "C[C@]12C[C@H](c3ccc(C#CCOC(=O)Nc4ccc(F)cc4)cc3)C3=C4CCC(=O)C=C4CCC3C1CC[C@@]2(O)C(F)(F)C(F)(F)F (some centres unmarked)"
  unit.info: "pM"
  IC50: 80
- molecule: "C[C@]12C[C@H](c3ccc(C#CCO)cc3)C3=C4CCC(=O)C=C4CC[C@H]3[C@@H]1CC[C@@]2(O)C(F)(F)C(F)(F)F"
  unit.info: "pM"
  IC50: 110
- molecule: "CCOC(=O)c1ccc(NC(=O)OCC#Cc2ccc([C@H]3C[C@@]4(C)[C@@H](CC[C@@]4(O)C(F)(F)C(F)(F)F)[C@@H]4CCC5=CC(=O)CCC5=C43)cc2)cc1"
  unit.info: "pM"
  IC50: 190
- molecule: "CC(C)(C)NC(=O)NCC#Cc1ccc([C@H]2C[C@@]3(C)[C@@H](CC[C@@]3(O)C(F)(F)C(F)(F)F)[C@@H]3CCC4=CC(=O)CCC4=C32)cc1"
  unit.info: "pM"
  IC50: 300

Value source: patent US9102701B2
